Measured values drawn from paper PMC5913840 for this set.

- Tested on: SavR (Staphylococcus aureus (NCTC8325?))
- Assay Name: ITC
- Experimental Setup: EMSA: 20 mM Tris-HCl pH 8.0, 100 mM NaCl, 25 C, 20 min; footprinting: same plus 5 mM MgCl2, 1 mM CaCl2, 25 C 30 min; ITC: 20 mM Tris-HCl pH 8.0, 100 mM NaCl …
Recorded Endpoint: Kd (µM)
Form entry: value (µM) — number only.

Task: For the sequence TACGCTAATTATAGCGTACGCACTTGAGTACGTCAA (double strand) [36-bp savRS operator] , report Kd.
Output: 9.13
